The origin of these recorded values is patent US8455497B2.

Quick list: IC50 per entry.
- Tested on: HIV-1 (strain IIIB)
- assay: Antiviral activity assay in MT4 cells (propidium iodide based)
- Assay type: cell-based
- conditionParameters: Human immunodeficiency virus 1, IIIB; wild type HIV-1 virus, MT4 cells; read-out: Wildtype virus - IC50

{"compound": "CCCCNC(=O)CCCOc1ccc(C[C@H](NC(=O)O[C@H]2CO[C@H]3OCC[C@H]32)[C@H](O)CN(CC(C)C)S(=O)(=O)c2ccc3c(c2)OCO3)cc1", "IC50": "1 to 10 nM"}
{"compound": "CC(C)CN(C[C@@H](O)[C@H](Cc1ccc(OCCCN)cc1)NC(=O)OC1CO[C@H]2OCC[C@@H]12)S(=O)(=O)c1ccc2c(c1)OCO2 (stereo in doubt)", "IC50": "10 to 100 nM"}
{"compound": "CC(C)CN(C[C@@H](O)[C@H](Cc1ccc(OCCCCN)cc1)NC(=O)O[C@H]1CO[C@H]2OCC[C@H]21)S(=O)(=O)c1ccc2c(c1)OCO2", "IC50": "10 to 100 nM"}

* * *

- System: EP13 multi protease inhibitor resistant virus
- assay: Anti-viral activity against resistant virus EP13 in MT4 cells
- Assay type: cell-based, HIV-1
- conditionParameters: Human immunodeficiency virus 1, MT4, read-out: EP13 mutant IC50
pIC50: −log10 of the molar value.
Quick list: pIC50 per entry.
valueKind: pIC50

{"chemicalString": "CC(C)CN(C[C@@H](O)[C@H](Cc1ccc(OC(=O)N(C)C)cc1)NC(=O)O[C@H]1CO[C@H]2OCC[C@H]21)S(=O)(=O)c1ccc2c(c1)OCO2", "valueKind": "pIC50", "reportedValue": "8.00 to 9.00"}
{"chemicalString": "CC(C)CN(C[C@@H](O)[C@H](Cc1ccc(OCCNS(C)(=O)=O)cc1)NC(=O)O[C@H]1CO[C@H]2OCC[C@H]21)S(=O)(=O)c1ccc2c(c1)OCO2", "valueKind": "pIC50", "reportedValue": "8.00 to 9.00"}
{"chemicalString": "CNC(=O)NCCOc1ccc(C[C@H](NC(=O)O[C@H]2CO[C@H]3OCC[C@H]32)[C@H](O)CN(CC(C)C)S(=O)(=O)c2ccc3c(c2)OCO3)cc1", "valueKind": "pIC50", "reportedValue": "7.00 to 8.00"}
{"chemicalString": "CNC(=O)Oc1ccc(C[C@H](NC(=O)O[C@H]2CO[C@H]3OCC[C@H]32)[C@H](O)CN(CC(C)C)S(=O)(=O)c2ccc3c(c2)OCO3)cc1", "valueKind": "pIC50", "reportedValue": "8.00 to 9.00"}
{"chemicalString": "CC(C)CN(C[C@@H](O)[C@H](Cc1ccc(OCCN/C(=N/C#N)Oc2ccccc2)cc1)NC(=O)O[C@H]1CO[C@H]2OCC[C@H]21)S(=O)(=O)c1ccc2c(c1)OCO2", "valueKind": "pIC50", "reportedValue": "8.00 to 9.00"}

* * *

Quick list: IC50 per entry.
- Tested on: HIV-1 (strain IIIB)
- assay: Antiviral activity assay in MT4 cells (propidium iodide based)
- Type: cell-based
- conditionParameters: Human immunodeficiency virus 1, IIIB; wild type HIV-1 virus, MT4 cells; read-out: Wildtype virus - IC50
valueKind: IC50

{"compound": "CC(C)CN(C[C@@H](O)[C@H](Cc1ccc(OCC(F)(F)F)cc1)NC(=O)O[C@H]1CO[C@H]2OCC[C@H]21)S(=O)(=O)c1ccc2c(c1)OCO2", "reportedValue": "1 to 10 nM"}
{"compound": "CNC(=O)OCCCC(C)(C)CN(C[C@@H](O)[C@H](Cc1ccc(OCc2ccccc2)cc1)NC(=O)OC1CO[C@H]2OCC[C@@H]12)S(=O)(=O)c1ccc2c(c1)OCO2 (some centres unmarked)", "reportedValue": "1 to 10 nM"}
{"compound": "CC(C)CN(C[C@@H](O)[C@H](Cc1ccc(OCc2cccc(C#N)c2)cc1)NC(=O)O[C@@H]1CO[C@H]2OCC[C@H]21)S(=O)(=O)c1ccc(N)cc1", "reportedValue": "1 to 10 nM"}
{"compound": "CC(C)CN(C[C@@H](O)[C@H](Cc1ccc(OCCCC(=O)O)cc1)NC(=O)O[C@H]1CO[C@H]2OCC[C@H]21)S(=O)(=O)c1ccc2c(c1)OCO2", "reportedValue": "10 to 100 nM"}
{"compound": "CC(C)CN(C[C@@H](O)[C@H](Cc1ccc(OC(=N)N(C)C)cc1)NC(=O)O[C@H]1CO[C@H]2OCC[C@H]21)S(=O)(=O)c1ccc2c(c1)OCO2", "reportedValue": "10 to 100 nM"}
